// data source = ChEMBL document CHEMBL4888484

System: Plasmodium falciparum
assay.info: Primary screen in NF54 nanoGlo assay, in single point, at 2uM, 72h
Format: functional, Erythrocyte
experimental.parameters: timepoint 72 hour
The whole screen tested about 150,000 compounds, of which about 540 (0.36%) showed an effect of 50% or more. For the sample, strong results were picked, then their nearest neighbours and some compounds at random.
parameter.measured: % Inhibition (%)
Output spec: scalar in %, unitless text.

Below, 2 molecules whose answers are already recorded.
CCC1=C(c2ccc(C)cc2)S(=O)(=O)N=C1N1CCC(C(=O)NCCCc2ccccc2)CC1 ... -9
CN(C[C@H](O)C(F)(F)F)C(=O)c1ccc(C#N)cn1 ... -15

Ask: State the recorded % Inhibition for this entry: "CCNCc1cccc(Cl)c1Cl"
Result: 4

Ask: Then "Cc1nc(O)nc(O)c1CN1CCOCC1" ?
Result: -10

Ask: Continue with "Cc1nn(CCO)c(C)c1[C@@H]1NCCc2[nH]cnc21"
Result: -16

Ask: Okay, and "CC(C)c1cc(=O)[nH]c(-n2nc(C3CC3)cc2NC(=O)c2ccccc2C(F)(F)F)n1" ?
Result: 18

Ask: One more molecule: "CCN1CCN([C@H]2CCN(c3ccnc4c(F)cc(Cl)cc34)C2)CC1"
Result: 11

---

Tested on: Plasmodium falciparum
assay.info: Primary screen in NF54 nanoGlo assay, in single point, at 2uM, 72h
Type: functional, Erythrocyte
experimental.parameters: timepoint 72 hour
The whole screen tested about 150,000 compounds, of which about 540 (0.36%) showed an effect of 50% or more. The full list was thinned out, with strong results kept by preference.
Lab note - cut at 50% for % Inhibition: Y if strictly below, N if not.

COc1ccc(-c2cc3n(n2)C[C@@](C)(C(=O)NCc2ccccc2OC)N(c2cc(C)cc(C)c2)C3=O)cc1 ... Y
CCc1ccc(-c2cc3n(n2)C[C@@](C)(C(=O)NC2CCCCC2)N(c2cc(C)cc(C)c2)C3=O)cc1 ... N
O=C(Nc1ccc(-n2cnnn2)cc1)c1coc(-c2ccccc2)n1 ... Y
COc1c2c(cc3c1[C@H](CC(=O)Cc1ccccc1)[N+](C)(C)CC3)OCO2 ... Y

Ask: Quick check: does "C[C@@]1(C(=O)NCc2ccccc2)Cn2nc(-c3ccccc3)cc2C(=O)N1c1ccc2c(c1)OCCO2" have % Inhibition under 50%?
Result: N

Ask: Next: "COc1c2c(cc3c1[C@H](C(=O)NC(c1ccccc1)c1ccccc1)[N+](C)(C)CC3)OCO2"
Result: Y

Ask: Continue with "COc1ccc(-c2cc3n(n2)C[C@@](C)(C(=O)NCc2ccccc2)N(Cc2ccc4c(c2)OCO4)C3=O)cc1"
Result: N

Ask: Check "CCc1ccc(-c2cc3n(n2)C[C@@](C)(C(=O)NC2CCCCCC2)N(c2ccc(F)cc2)C3=O)cc1" too.
Result: Y

---

System: Plasmodium falciparum
assay.info: Primary screen in NF54 nanoGlo assay, in single point, at 2uM, 72h
Assay type: functional, Erythrocyte
experimental.parameters: timepoint 72 hour
Among all 150,000 compounds or so, about 540 (0.36%) showed an effect of 50% or more. What follows is part of a selection rich in strong results, with near analogues and random picks from the rest.
parameter.measured: Z score
Respond with the number and no other words.

Worked cases, Z score given:
Nc1c(S(=O)(=O)c2ccc(Cl)cc2)c2nc3ccccc3nc2n1Cc1ccc(F)cc1 ... 0.21
NC(=O)C[C@H]1CCN(c2nc(-c3ccccn3)nc3c2CCC3)C1 ... 1.56
O=C(c1ccccc1C(F)(F)F)N1CC2(CCOC2)C1 ... -0.56
C[C@H]1CCCN(c2nc(-c3ccccn3)nc3ccccc23)C1 ... -9.05
C#CCCCCC(=O)Nc1ccc(C#N)cn1 ... -0.84
O=C1CCCN1c1ccc(NCc2cccc(O)c2)cc1F ... 0.32
Cc1cnc(=O)n(CC(=O)N2CCN(c3ccccc3F)CC2)c1 ... 0.07
Nc1c(-c2nc3ccccc3[nH]2)c2nc3ccccc3nc2n1Cc1ccccc1F ... -5.76

Ask: Entry "FC(F)(F)C1CN(c2nc(-c3ccccn3)nc3c2CCC3)C1" has what Z score?
Result: -13.36

Ask: // query: "O=C(Cc1ccc2[nH]c(=O)[nH]c2c1)N1CCOC[C@@H]1CC1CCC1"
Result: -0.19

Ask: Similarly, "COC[C@H]1CCN(c2nc(-c3ccccn3)nc3c2CCNCC3)C1" ?
Result: 0.41

---

Test system: Plasmodium falciparum
assay.info: Primary screen in NF54 nanoGlo assay, in single point, at 2uM, 72h
Assay type: functional, Erythrocyte
experimental.parameters: timepoint 72 hour
Out of some 150,000 compounds screened, about 540 (0.36%) showed an effect of 50% or more. Shown is part of a subset that was picked to be rich in strong results.
Entries and their measured Z score follow.
# output: bare number, no unit

Worked set:
O=S(=O)(c1ccccc1)N1CCC(OCCOc2cccnc2)CC1 ... 1.14
COc1cc2c(cc1OC)C(=O)N(Cc1ccccc1)C(=O)C2=O ... 1.31

Ask: Form field: reported Z score of "Cc1cnn(CCCNC(=O)C[C@H]2COCCN2Cc2ccc(C)o2)c1"
Result: 2.24

Ask: What about "Cc1ccccc1CC(=O)N[C@H]1CCCCNC1=O" ?
Result: 0.03

Ask: Thanks! And "Cc1csc(CNC(=O)NCc2nnc3n2CCOCC3)c1" ?
Result: 0.17

Ask: Another molecule to check: "CCc1ccccc1C(=O)OCc1nccn1C"
Result: 0.26

Ask: Next up: "C[C@H](Oc1ccccc1F)c1nnc2n1CCCC2"
Result: 1.39

Ask: What do we get for "Cc1nc(N2CCCC2)nc(C)c1NC(=O)c1cccc(F)c1" ?
Result: 0.84

Ask: Now the molecule CCN(CC)CC(O)COc1c(Br)cc(C(C)(C)c2cc(Br)c(OCC(O)CN(CC)CC)c(Br)c2)cc1Br (stereo unspecified)
Result: -13.36

Ask: Try this molecule next: "O=C(NC[C@]12C[C@H]1COC21CCC1)c1ncoc1-c1ccon1"
Result: -0.99

Ask: Cool, now "Cc1ccc(C)c(-c2cnn(CC3CC3)c2)c1"
Result: 0.02

Ask: Moving on to "C[C@@H](CO)N(C)S(=O)(=O)[C@H]1C[C@@H]1c1ccc(Br)cc1"
Result: -0.19

---

Test system: Plasmodium falciparum
assay.info: Primary screen in NF54 nanoGlo assay, in single point, at 2uM, 72h
Assay type: functional, Erythrocyte
experimental.parameters: timepoint 72 hour
Out of some 150,000 compounds screened, about 540 (0.36%) showed an effect of 50% or more. The list comes from a sample in which strong results are over-represented; it also holds close analogues and randomly drawn compounds.
Readings of Z score for the listed compounds
No unit in the answer, only the number.

O=C(NCCc1ccccc1)NC1CCCC1 ... 2.11
COc1ccc2nc(O)c(CCC(=O)N3CCCC3)cc2c1 ... 3.74
O=C(Nc1[nH]c(=O)ncc1F)c1cc(F)c(F)cc1Br ... -7.85
O=C(Cc1ccccc1Cl)N1CC[C@H](Oc2ccc3ccccc3n2)C1 ... 0.96
Cc1ccc([C@H]2C(=O)N(C3CCC(C)CC3)CC(=O)N2C2CCCCCCC2)cc1 (stereo partly drawn) ... 0.82

Ask: Recall the recorded Z score for "O=C(Nc1[nH]c(=O)ncc1F)c1cccc2ccccc12" with Plasmodium falciparum and state it.
Result: -7.83

Ask: Try the compound "CCOC(=O)N1CCC(C)(CN2CCS(=O)(=O)C[C@@H](C)C2)CC1"
Result: 1.46

Ask: Try "O=C(NCc1n[nH]c(=O)[nH]1)c1ccc(Br)c(F)c1" next.
Result: 0.79

Ask: Also, "O=C(CC1CCC(F)(F)CC1)Nc1ccc2c(c1F)CCNC2" please.
Result: 1.83

Ask: Now give it for "CC1CCN(C(=O)[C@H]2CCc3ncc(-c4ccc(F)cc4)n3C2)CC1" too.
Result: 1.27

Ask: Item: "COCc1ncc(C)n1CC1CN(C(=O)CCc2ccccc2)C1"
Result: 1.37

Ask: Param item: "C[C@H]1CCC[C@@H](NCCc2ccccc2)CCC/C=C/c2cc(O)cc(O)c2C(=O)O1"
Result: -6.47

---

Tested on: Plasmodium falciparum
assay.info: Primary screen in NF54 nanoGlo assay, in single point, at 2uM, 72h; a lower Z score goes with more inhibition
Assay type: functional, Erythrocyte
experimental.parameters: timepoint 72 hour
The campaign covered roughly 150,000 compounds. About 540 (0.36%) showed an effect of 50% or more. The entries come from a sample that favours strong results as a whole.
# if value of Z score reaches 0.2, tag Fulfilled; if it stays below, tag Not fulfilled

Look over these answered cases.
O=C(NC1(c2ncon2)CCOCC1)c1cc2ccccn2c1 ... Fulfilled
Cc1ccc2c(c1)C(=O)N1CCCC1C(=O)N2CC(=O)NCC1CCCO1 (stereo not given) ... Not fulfilled
COc1ccccc1CNC(=O)c1cc(C)nc2c(-c3ccc(C)cc3)cccc12 ... Not fulfilled
O=C1N[C@@H](c2cccc(OCc3ccccc3)c2)Nc2c1sc(=S)n2-c1ccccc1 ... Fulfilled
NS(=O)(=O)c1cnc(N[C@H]2CCc3ccc(F)cc32)s1 ... Fulfilled

Ask: Determine whether this compound has Z score no lower than 0.2: "Cc1cc(CN(C)c2ccnc3cc(Br)cnc23)no1"
Result: Not fulfilled

Ask: Next compound up: Cc1noc2ncnc(N3CCCC3CC(O)c3cnn(C)c3)c12 (stereo not given)
Result: Not fulfilled

Ask: Also, "COc1ccnc(NCCCNc2nccc(OC)n2)n1" please.
Result: Fulfilled

Ask: Now consider "CN1C(=O)C2(CCN(C(=O)CN3C(=O)OC(C)(C)C3=O)CC2)c2ccccc21" .
Result: Fulfilled

Ask: Subsequent entry: "CN1CCN(c2nc3c(c(Oc4cccc(F)c4)n2)CN(S(=O)(=O)c2cccc(Cl)c2)CC3)CC1"
Result: Fulfilled
